- Test system: 379773-124-R-J2-PDC complex spheroids, viability % test/control;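 further: compound exposure lasted seven days before the viability readout; 100% = DMSO vehicle control wells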
- assay: Anticancer human tumor 379773-124-R-J2-PDC patient-derived endometrial carcinoma cell line growth inhibition [CLK]
- experimentalSetup: second compound 0.316 µM; first compound 0.1 µM; active compounds read low
// reported viability, T/C for each item listed
Answer in %, number only, no unit symbol.

Below: 4 molecules and their reported viability, T/C.
Cn1ncnc1[C@H]1c2n[nH]c(=O)c3cc(F)cc(c23)N[C@@H]1c1ccc(F)cc1 + CN1CCN(c2cc(C(=O)Nc3cc4cc(-c5cnn(C)c5)ccc4cn3)ccn2)CC1 = 12.3
COC1C=CCC(C)C(C)S(=O)(=O)NC(=O)c2ccc3c(c2)N(CC2CCC21)CC1(CCCc2cc(Cl)ccc21)CO3 (stereo not given) + CN1CCN(c2cc(C(=O)Nc3cc4cc(-c5cnn(C)c5)ccc4cn3)ccn2)CC1 = 29.9
C=C(F)C(=O)N1CCN(c2nc(OCC3CCCN3C)nc3c2CCN(c2cccc4cccc(Cl)c24)C3)CC1CC#N (stereo not given) + CN1CCN(c2cc(C(=O)Nc3cc4cc(-c5cnn(C)c5)ccc4cn3)ccn2)CC1 = 36.7
CCN1CCN(Cc2ccc(Nc3ncc(F)c(-c4cc(F)c5nc(C)n(C(C)C)c5c4)n3)nc2)CC1 + CNC(=O)c1ccc(Nc2nc(OC3CCCC3)c3c(-c4ccc5nc(C)oc5c4)c[nH]c3n2)c(OC)c1 = 38

Okay, now this molecule:
What measured viability, T/C is associated with C=CC(=O)N1CCN(c2nc(=O)n(-c3c(C)ccnc3C(C)C)c3nc(-c4c(O)cccc4F)c(F)cc23)C(C)C1 (stereo not given) + CNC(=O)c1ccc(Nc2nc(OC3CCCC3)c3c(-c4ccc5nc(C)oc5c4)c[nH]c3n2)c(OC)c1 on 379773-124-R-J2-PDC complex spheroids, viability % test/control?
33
